# Test system: MCF7 breast
# experimentNotes: NCI tumour cell line growth inhibition, 48 h; in the data active means GI50 below about 0.43 µM; inactive means the rest
Give one outcome, nothing more. List: active, inactive

Problem: For Oc1ccc(O)c(-c2cn3c(n2)SCC3)c1 , which call appears in the assay record?
Solution: inactive

Problem: For COc1ccc(C=Nc2c(C(=O)Nc3cccc(Cl)c3C)sc3nc(C)c(C(=O)/C=C/c4ccc(OC)cc4)cc23)cc1 , which call appears in the assay record?
Solution: active

Problem: For CSC(=NC#N)S/C=C/C(=O)c1ccccc1 , which call appears in the assay record?
Solution: inactive

Problem: For Cn1c(=O)c(Oc2ccc(F)cc2F)cc2cnc(NC(C)(C)CO)nc21 , which call appears in the assay record?
Solution: inactive

Problem: For COc1cc2c(c(OC)c1OC)-c1ccc(O)cc1[C@@H](NC(C)=O)CC2 , which call appears in the assay record?
Solution: active

Problem: For O=c1oc2ccc(I)cc2c(=O)n1-c1ccc(F)cc1F , which call appears in the assay record?
Solution: inactive

Problem: For COC(=O)c1ccc2c(c1)C(=O)c1c-2n(CCCCl)c(=O)c2cc([N+](=O)[O-])ccc12 , which call appears in the assay record?
Solution: inactive

Problem: For CC1CCN(Cc2ccc(NC(=O)c3cc4ccc5cccnc5c4[nH]3)cc2)CC1 , which call appears in the assay record?
Solution: inactive

Problem: For CCCCC(CCCCCC(CCCC)NCc1ccc2c(c1)OCO2)NCc1ccc2c(c1)OCO2 (stereo not drawn) , which call appears in the assay record?
Solution: active

Problem: For CCN(CC)CCCC(C)Nc1ccnc2cc(Cl)ccc12 (stereo not drawn) , which call appears in the assay record?
Solution: inactive

Problem: For COc1cccc(/C=C/C(=O)c2ccc(SC)cc2)c1OC , which call appears in the assay record?
Solution: inactive

Problem: For COc1ccc(C#Cc2ccc(=O)oc2-c2cc(OC)c(OC)c(OC)c2)cc1O , which call appears in the assay record?
Solution: inactive

Problem: For CCCCN1CCCC[C@@H]1C(=O)N[C@H](C(=O)N(C)[C@H](C[C@@H](OC(C)=O)c1nc(C(=O)NC2CCC(C(=O)OC)CC2)cs1)C(C)C)C(C)C (stereo partly drawn) , which call appears in the assay record?
Solution: inactive

----------
# Test system: KM20L2 colon
# experimentNotes: NCI tumour cell line growth inhibition, 48 h
Provide the reported TGI of each item.

Problem: Fill in the recorded TGI for this compound, with KM20L2 colon as test system: CCC(=O)N1C(=O)OCC1C(C)C (stereo not given)
Solution: > 100 µM

Problem: Fill in the recorded TGI for this compound, with KM20L2 colon as test system: CC(=O)OC(CC1(C)C(C)CCC23COC(=O)C2=CCCC31)c1ccoc1 (stereo not given)
Solution: 58.7 µM

Problem: Fill in the recorded TGI for this compound, with KM20L2 colon as test system: COC(=O)c1ccccc1N(C(=O)c1ccccc1)c1ccccc1C
Solution: > 100 µM

Problem: Fill in the recorded TGI for this compound, with KM20L2 colon as test system: O=C(Nc1cccc2c1C(=O)c1c(NC(=O)c3ccccc3)ccc(Nc3cccc4c3C(=O)c3ccccc3C4=O)c1C2=O)c1ccccc1
Solution: > 100 µM

Problem: Fill in the recorded TGI for this compound, with KM20L2 colon as test system: COc1ccc(/C(=N\NC(=O)NN)C(c2ccc(OC)cc2)C2(O)C(=O)Nc3c(Cl)cc(Cl)cc32)cc1 (stereo not given)
Solution: > 100 µM

Problem: Fill in the recorded TGI for this compound, with KM20L2 colon as test system: CCOC(=O)Cn1c2ccccc2c(=O)c2cc(C)c(C)c(C#N)c21
Solution: > 100 µM

Problem: Fill in the recorded TGI for this compound, with KM20L2 colon as test system: CCN(CC)CCCC(C)Nc1ccnc2cc(Cl)ccc12 (stereo not given)
Solution: 44.5 µM

Problem: Fill in the recorded TGI for this compound, with KM20L2 colon as test system: C[C@]12CCC(=O)C(OC(=O)c3ccc([N+](=O)[O-])cc3)=C1CCC2=O
Solution: > 100 µM

Problem: Fill in the recorded TGI for this compound, with KM20L2 colon as test system: COc1cc(/C=C(\NC(=O)c2ccccc2)c2nc3ccc4c(c3[nH]2)C(=O)c2ccccc2C4=O)cc(OC)c1OC
Solution: > 100 µM

Problem: Fill in the recorded TGI for this compound, with KM20L2 colon as test system: BrC(Br)=C1C(=C(Br)Br)C(Br)C1Br (stereo not given)
Solution: 3.04 µM

----------
# System: HCC-2998 colon
# experimentNotes: NCI tumour cell line growth inhibition, 48 h
Provide the reported TGI of each item.

Problem: Fill in the recorded TGI for this molecule, with HCC-2998 colon as test system: COc1ccc(/C=C2\CN(C(=O)C(Cl)Cl)C/C(=C\c3ccc(OC)cc3)C2=O)cc1
Solution: 2.2 µM

Problem: Fill in the recorded TGI for this molecule, with HCC-2998 colon as test system: CCCCN1CCCC[C@@H]1C(=O)N[C@H](C(=O)N(C)[C@H](C[C@@H](OC(C)=O)c1nc(C(=O)NC2CCC(C(=O)OC)CC2)cs1)C(C)C)C(C)C (stereo partly drawn)
Solution: > 25 µM

Problem: Fill in the recorded TGI for this molecule, with HCC-2998 colon as test system: O=C(Nc1ccc(Cc2ccccc2)cc1)Nc1nn(C(=O)Nc2ccc(Cc3ccccc3)cc2)c2ccccc12
Solution: > 100 µM

Problem: Fill in the recorded TGI for this molecule, with HCC-2998 colon as test system: NCCSc1cc(O)c2c(c1N)C(=O)c1ccccc1C2=O
Solution: > 100 µM

Problem: Fill in the recorded TGI for this molecule, with HCC-2998 colon as test system: Cc1c(-c2ccc(C3CCCCC3)cc2)nc2ccc(F)cc2c1C(=O)O
Solution: > 100 µM

Problem: Fill in the recorded TGI for this molecule, with HCC-2998 colon as test system: Cc1[nH]c(=O)[nH]c(=O)c1/C=C/C(=O)O (tested in a mixture with another compound)
Solution: > 625 µM

Problem: Fill in the recorded TGI for this molecule, with HCC-2998 colon as test system: CC(C)N1CCN(c2ccncc2S(=O)(=O)N2CCCCC2)CC1
Solution: > 100 µM

Problem: Fill in the recorded TGI for this molecule, with HCC-2998 colon as test system: CC(=O)c1[nH]c(NC(C)C)c(C(=S)Nc2ccccc2)c1N
Solution: 75.5 µM

Problem: Fill in the recorded TGI for this molecule, with HCC-2998 colon as test system: CC(Oc1ccccc1Cl)C(=O)NN1C(=O)CC(=O)N(c2ccccc2)C1=S (stereo not drawn)
Solution: > 100 µM

Problem: Fill in the recorded TGI for this molecule, with HCC-2998 colon as test system: CC(=O)Nc1cc2cc(N)ccc2oc1=O
Solution: > 100 µM

Problem: Fill in the recorded TGI for this molecule, with HCC-2998 colon as test system: O=c1[nH]nc(NCc2ccccc2)c2nnn(Cc3ccccc3)c12
Solution: > 100 µM

Problem: Fill in the recorded TGI for this molecule, with HCC-2998 colon as test system: CCCCCCCCCCCCCCCC1=NCCN1
Solution: 3.42 µM

Problem: Fill in the recorded TGI for this molecule, with HCC-2998 colon as test system: COc1cc(C)c(/C=C2/N=C(c3ccccc3)OC2=O)c([N+](=O)[O-])c1OC
Solution: > 100 µM

Problem: Fill in the recorded TGI for this molecule, with HCC-2998 colon as test system: Cc1c[n+]2c3ccccc3c3ccccc3c2s1
Solution: 13.7 µM

Problem: Fill in the recorded TGI for this molecule, with HCC-2998 colon as test system: CC(=O)Nc1ccc2nc(-c3ccccn3)c(-c3ccccn3)nc2c1
Solution: > 100 µM

Problem: Fill in the recorded TGI for this molecule, with HCC-2998 colon as test system: COc1cc2c(c(OC)c1OC)C(=O)[C@@H]1[C@H]2N1C(=O)NCCCl
Solution: > 100 µM

Problem: Fill in the recorded TGI for this molecule, with HCC-2998 colon as test system: CN(C)CCCN(CCC1CCCCC1)CCC1CCCCC1
Solution: 0.915 µM

Problem: Fill in the recorded TGI for this molecule, with HCC-2998 colon as test system: CCOC(=O)C1SC(=Nc2ccc(OC)c(OC)c2)N=C1C (stereo not drawn)
Solution: > 100 µM

----------
# Tested on: HL-60(TB) leukemia
# experimentNotes: NCI tumour cell line growth inhibition, 48 h
Provide the reported GI50 of each item.

Problem: Fill in the recorded GI50 for this compound, with HL-60(TB) leukemia as test system: CCCCCCCCCCCCCCCC1=NCCN1
Solution: 1.73 µM

Problem: Fill in the recorded GI50 for this compound, with HL-60(TB) leukemia as test system: COc1cc(OC)cc(-c2ccc(-c3ccc(C(=N)N)cn3)o2)c1
Solution: 2.12 µM

Problem: Fill in the recorded GI50 for this compound, with HL-60(TB) leukemia as test system: COc1ccc2c(c1)c(-c1nc(-c3c[nH]c4ncccc34)cs1)cn2CCCN1CCCCC1
Solution: 1.86 µM

Problem: Fill in the recorded GI50 for this compound, with HL-60(TB) leukemia as test system: O=C1/C=C/[C@@H](O)[C@@H]2C[C@@H](O)C[C@H]2/C=C/CCC[C@H](CCc2cccc3ccccc23)O1
Solution: 0.0923 µM

Problem: Fill in the recorded GI50 for this compound, with HL-60(TB) leukemia as test system: O=C(Nc1ccc(Cc2ccccc2)cc1)Nc1nn(C(=O)Nc2ccc(Cc3ccccc3)cc2)c2ccccc12
Solution: > 100 µM

Problem: Fill in the recorded GI50 for this compound, with HL-60(TB) leukemia as test system: O=S(=O)([O-])c1ccc(N=Cc2ccccc2[O-])cc1.O=S(=O)([O-])c1ccc(N=Cc2ccccc2[O-])cc1.[Co+2]
Solution: 40.1 µM

Problem: Fill in the recorded GI50 for this compound, with HL-60(TB) leukemia as test system: COc1ccc(/C=C2\CN(C(=O)C(Cl)Cl)C/C(=C\c3ccc(OC)cc3)C2=O)cc1
Solution: 0.791 µM

Problem: Fill in the recorded GI50 for this compound, with HL-60(TB) leukemia as test system: Cc1nc2c(c(N3CCCc4ccccc43)n1)CCC2
Solution: < 0.01 µM

Problem: Fill in the recorded GI50 for this compound, with HL-60(TB) leukemia as test system: COc1cc2c(c(OC)c1OC)-c1ccc(O)cc1[C@@H](NC(C)=O)CC2
Solution: 0.0227 µM

Problem: Fill in the recorded GI50 for this compound, with HL-60(TB) leukemia as test system: COc1ccc2c3c(Nc4cccc(/C(C)=N\O)c4)[nH]c4ccccc4c-3c(N=O)c2c1
Solution: 16.9 µM

Data origin: PubChem BioAssay (NCI)
